Target: T1, Bcat-Halo (beta-catenin HaloTag construct transfected into HEK293 cells) (UniProt P35222 1-781)
T1 sequence (looked up): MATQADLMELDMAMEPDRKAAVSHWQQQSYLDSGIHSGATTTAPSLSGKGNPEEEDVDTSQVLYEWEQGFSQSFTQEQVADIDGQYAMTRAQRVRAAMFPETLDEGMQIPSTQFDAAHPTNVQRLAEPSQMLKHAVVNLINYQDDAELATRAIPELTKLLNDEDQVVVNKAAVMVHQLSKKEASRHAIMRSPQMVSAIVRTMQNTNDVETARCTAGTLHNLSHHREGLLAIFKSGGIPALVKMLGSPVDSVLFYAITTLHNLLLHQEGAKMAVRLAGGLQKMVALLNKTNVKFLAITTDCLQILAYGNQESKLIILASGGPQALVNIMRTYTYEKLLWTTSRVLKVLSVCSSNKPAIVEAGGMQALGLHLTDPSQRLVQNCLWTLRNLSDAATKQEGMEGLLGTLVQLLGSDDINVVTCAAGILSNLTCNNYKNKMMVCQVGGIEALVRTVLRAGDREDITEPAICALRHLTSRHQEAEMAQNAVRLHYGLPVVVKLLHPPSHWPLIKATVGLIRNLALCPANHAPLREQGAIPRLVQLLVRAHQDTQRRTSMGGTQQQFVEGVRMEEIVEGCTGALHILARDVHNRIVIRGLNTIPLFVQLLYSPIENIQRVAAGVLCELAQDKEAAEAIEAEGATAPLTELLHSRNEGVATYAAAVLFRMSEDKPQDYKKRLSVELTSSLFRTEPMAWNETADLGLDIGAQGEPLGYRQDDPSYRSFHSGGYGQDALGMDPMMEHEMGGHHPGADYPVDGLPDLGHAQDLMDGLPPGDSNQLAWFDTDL
Test: cell-based or functional assay
Starred links: 1 amine or outer side, 2 acyl side, 3 side chain; linkers in the order of their positions; H or OH if unused. Positions of bridges follow the written chain, without caps; N, C: chain ends. Non-standard residues stand in square brackets, D forms with d. Primed or numbered codes have the meaning given here. No end group written: not given here. B5(4) = 2,2-bis(4-pentenyl)glycine = 2-amino-2-(pent-4-en-1-yl)hept-6-enoic acid (stitching residue), C=CCCCC(CCCC=C)(N[*:1])C(=O)[*:2]; (CH2NMe2)4SEF = (S)-2-amino-3-(4-(3-(dimethylamino)prop-1-yn-1-yl)phenyl)propanoic acid, CN(C)CC#Cc1ccc(C[C@H](N[*:1])C(=O)[*:2])cc1; TfeGA = (S)-2-amino-3-((carboxymethyl)(2,2,2-trifluoroethyl)amino)propanoic acid, O=C([C@H](CN(CC(=O)[*:3])CC(F)(F)F)N[*:1])[*:2]; PyrS2 = (S)-3-amino-1-((pent-4-en-1-yloxy)carbonyl)pyrrolidine-3-carboxylic acid, C=CCCCOC(=O)N1CC[C@@](N[*:1])(C(=O)[*:2])C1; Bta = N[C@@H](Cc1csc2ccccc12)C(=O)O; αAllylPro = C=CC[C@@]1(C(=O)O)CCCN1; tBuAla = CC(C)(C)C[C@H](N)C(=O)O; 3Thi = N[C@@H](Cc1ccsc1)C(=O)O
Please respond with reported NanoBRET Abs IC50 for every item in the list.
Numbers only, in µM.

Ac-[αAllylPro]D[tBuAla][B5(4)]DD[(CH2NMe2)4SEF]AFL[PyrS2]F[Bta]Q (staple 1-4, 4-11) [I-1467]; 9.6

Input line: Record request: NanoBRET Abs IC50 value, item Ac-[αAllylPro]D[tBuAla][B5(4)]D[TfeGA]AAFL[PyrS2][3Thi][Bta]Q-NH2 (staple 1-4, 4-11) [I-1461]
Output line: 3.7
